Data provenance: patent US11230541B2

Each entry below lists one item and its recorded inhibition at 10 µM value.
# TARGET: NMDA receptor composed of four subunits including 2 sets of heterodimers of NR1 and NR2B (Homo sapiens, UniProt Q13224)
# Construct: host or cells: HEK293 (tetracycline-induced expression)
# Sequence (Q13224 27-1484, other chains not shown): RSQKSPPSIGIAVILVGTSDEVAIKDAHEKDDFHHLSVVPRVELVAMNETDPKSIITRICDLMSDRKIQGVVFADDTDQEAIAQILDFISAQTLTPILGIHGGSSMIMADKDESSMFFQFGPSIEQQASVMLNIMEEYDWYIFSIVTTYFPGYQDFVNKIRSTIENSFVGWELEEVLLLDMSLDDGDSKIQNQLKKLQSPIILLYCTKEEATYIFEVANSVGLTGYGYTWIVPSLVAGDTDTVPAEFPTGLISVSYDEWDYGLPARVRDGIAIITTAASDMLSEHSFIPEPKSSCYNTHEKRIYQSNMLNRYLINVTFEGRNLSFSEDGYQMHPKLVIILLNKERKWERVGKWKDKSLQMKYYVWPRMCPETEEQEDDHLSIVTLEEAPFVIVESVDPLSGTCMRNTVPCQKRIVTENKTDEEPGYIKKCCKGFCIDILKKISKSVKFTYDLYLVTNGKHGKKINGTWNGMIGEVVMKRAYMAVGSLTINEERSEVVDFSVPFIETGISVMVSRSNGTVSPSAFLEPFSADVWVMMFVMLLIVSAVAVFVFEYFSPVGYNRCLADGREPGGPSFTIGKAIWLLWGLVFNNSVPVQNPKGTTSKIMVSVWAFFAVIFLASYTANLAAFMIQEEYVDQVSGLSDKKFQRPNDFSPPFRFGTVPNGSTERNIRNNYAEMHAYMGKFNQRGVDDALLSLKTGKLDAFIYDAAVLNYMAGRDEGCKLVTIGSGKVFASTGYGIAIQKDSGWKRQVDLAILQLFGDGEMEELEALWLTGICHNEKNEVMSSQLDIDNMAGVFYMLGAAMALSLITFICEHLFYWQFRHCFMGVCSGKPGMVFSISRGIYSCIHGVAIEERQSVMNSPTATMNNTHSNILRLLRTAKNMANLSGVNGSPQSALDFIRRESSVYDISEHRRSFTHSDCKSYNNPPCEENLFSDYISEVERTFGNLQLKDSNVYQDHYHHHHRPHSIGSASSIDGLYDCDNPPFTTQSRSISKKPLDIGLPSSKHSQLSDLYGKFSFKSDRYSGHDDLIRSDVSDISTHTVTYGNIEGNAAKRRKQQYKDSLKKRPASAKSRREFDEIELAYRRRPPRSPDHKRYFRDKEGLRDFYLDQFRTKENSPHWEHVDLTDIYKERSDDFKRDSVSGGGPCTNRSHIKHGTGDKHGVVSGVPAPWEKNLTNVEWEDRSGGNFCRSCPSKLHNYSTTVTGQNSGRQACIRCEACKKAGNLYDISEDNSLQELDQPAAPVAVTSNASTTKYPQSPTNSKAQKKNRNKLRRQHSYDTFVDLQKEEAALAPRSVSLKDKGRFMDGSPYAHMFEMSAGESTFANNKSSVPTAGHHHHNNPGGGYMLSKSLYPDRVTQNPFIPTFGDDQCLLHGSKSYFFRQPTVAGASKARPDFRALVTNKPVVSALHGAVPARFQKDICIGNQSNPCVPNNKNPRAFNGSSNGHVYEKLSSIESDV
# EXPERIMENT DESCRIPTION: NR2B Ca2+ influx assay (FLIPR, Fluo-4) in HEK293 cells expressing human GRIN1 and GRIN2B
# Assay type: cell-based
# RUN CONDITIONS: HEK293, 10 μM final compound concentration, glutamic acid/glycine-induced Ca2+ influx, read-out: inhibitory rate (10 μM compound concentration)
MEASUREMENT LABEL: inhibition at 10 µM

> print(dat)
                                   compound  result.value
1  COc1ccc2ncn(C)c2c1CNC(=O)c1ccc(OC(F)(F)F)c(F)c1 [Example 52]           91%
2  COc1ccc(NC(=O)NCc2c(OC)ccc3ncn(C)c23)cc1 [Example 266]           58%
3  COCc1ccc2ncn(C)c2c1CNC(=O)c1ccc(OC(F)F)c(Cl)c1 [Example 283]           93%
4  O=C(NCc1c(C(F)(F)F)ccc2[nH]ncc12)c1ccc(OC(F)(F)F)cc1 [Example 5]           85%
5  CCOc1ncc(C(=O)NCc2c(C3CC3)ccc3[nH]ncc23)cc1Cl [Example 104]           90%

----------
# TARGET: NMDA receptor composed of four subunits including 2 sets of heterodimers of NR1 and NR2B (Homo sapiens, UniProt Q13224)
# Construct: host or cells: HEK293 (tetracycline-induced expression)
# EXPERIMENT DESCRIPTION: NR2B Ca2+ influx assay (FLIPR, Fluo-4) in HEK293 cells expressing human GRIN1 and GRIN2B
# Format: cell-based
# RUN CONDITIONS: HEK293, 10 μM final compound concentration, glutamic acid/glycine-induced Ca2+ influx, read-out: inhibitory rate (10 μM compound concentration)
# Experimental: […] As an index of the NMDA receptor activation, intracellular calcium ion (Ca^2+) influx caused by the binding of glycine and glutamic acid with NR1 and NR2B, respectively, was used. […] Using FLIPR (Molecular Devices), 25 μL of an assay buffer containing 30 μM glutamic acid, 30 μM glycine was added, and the fluorescence signal was measured every 3 seconds for 5 min. […]
Decide by inhibition at 10 µM: equal to or exceeding 90% means true (1), less means false (0).

> print(dat)
                                   compound  answer.label
1  Cn1nnc2cccc(CNC(=O)c3ccc(OC(F)(F)F)c(F)c3)c21 [Example 274]      true (1)
2  Cc1ccc2ncn(C)c2c1CNC(=O)c1ccc(C(F)F)s1 [Example 137]     false (0)
3  COc1ccc2ncn(C)c2c1CNC(=O)c1cc(C)cs1 [Example 43]     false (0)
4  O=C(NCc1c(C2CC2)ccc2[nH]nnc12)c1ccc(OC(F)(F)F)cc1 [Example 203]      true (1)
5  COCc1ccc2ncn(C)c2c1CNC(=O)c1ccc(OC(F)(F)F)c(F)c1 [Example 284]      true (1)

----------
# TARGET: NMDA receptor composed of four subunits including 2 sets of heterodimers of NR1 and NR2B (Homo sapiens, UniProt Q13224)
# Construct: host or cells: HEK293 (tetracycline-induced expression)
# EXPERIMENT DESCRIPTION: NR2B Ca2+ influx assay (FLIPR, Fluo-4) in HEK293 cells expressing human GRIN1 and GRIN2B
# Type: cell-based
# RUN CONDITIONS: HEK293, 10 μM final compound concentration, glutamic acid/glycine-induced Ca2+ influx, read-out: inhibitory rate (10 μM compound concentration)
MEASUREMENT LABEL: inhibition at 10 µM (%)

> print(dat)
                                 smiles.data    measurement.label  result.value
 1  Cc1cc(C(=O)NCc2c(C3CC3)ccc3[nH]ncc23)ccc1Cl  inhibition at 10 µM            94
 2      COc1ccc2ncn(C)c2c1CNC(=O)c1cc(Cl)cs1  inhibition at 10 µM            87
 3      COc1ccc2ncn(C)c2c1CNC(=O)c1ccc(Cl)s1  inhibition at 10 µM            89
 4  COc1ccc2ncn(C)c2c1CNC(=O)c1ccc(OC(F)(F)F)nc1  inhibition at 10 µM            93
 5  COc1ccc2ncn(C)c2c1CNC(=O)c1ccc(C(F)F)cc1  inhibition at 10 µM            88
 6  COc1c(F)cc(C(=O)NCc2c(C)ccc3[nH]nnc23)cc1F  inhibition at 10 µM            96
 7  COc1cc(C(=O)NCc2c(C3CC3)ccc3[nH]ncc23)ccc1Cl  inhibition at 10 µM            82
 8  COc1ccc2ncn(C)c2c1CNC(=O)c1ccc(Cl)c(F)c1  inhibition at 10 µM            89
 9  Cc1ccc(C(=O)NCc2c(C3CC3)ccc3[nH]ncc23)cc1  inhibition at 10 µM            91
10  O=C(NCc1c(C2CC2)ccc2[nH]ncc12)c1ccc(OC(F)F)c(F)c1  inhibition at 10 µM            92
11  COc1ccc2ncn(C)c2c1CNC(=O)Nc1ccc(OC(F)(F)F)cc1  inhibition at 10 µM            83
12  O=C(NCc1c(C2CC2)ccc2[nH]ncc12)c1csc(Cl)c1  inhibition at 10 µM            93
13  Cc1ccc2ncn(C)c2c1CNC(=O)c1ccc(OC(F)F)cc1  inhibition at 10 µM            90
14  Cc1ccc2ncn(C)c2c1CNC(=O)c1cnc(OC(F)F)c(F)c1  inhibition at 10 µM            90
15  Cc1cc(C(=O)NCc2c(C3CC3)ccc3[nH]ncc23)cc(F)c1F  inhibition at 10 µM            93
16  O=C(NCc1cccc2[nH]ncc12)c1ccc(OC(F)F)c(F)c1  inhibition at 10 µM            94
17  Cc1ccc2[nH]ncc2c1CNC(=O)c1ccc(OC(F)(F)F)cc1  inhibition at 10 µM            92
18  COc1ncc(C(=O)NCc2c(C3CC3)ccc3[nH]nnc23)cc1F  inhibition at 10 µM            91
19  COc1ccc2ncn(C)c2c1CNC(=O)c1ccc(C)c(Cl)c1  inhibition at 10 µM            91

----------
# TARGET: NMDA receptor composed of four subunits including 2 sets of heterodimers of NR1 and NR2B (Homo sapiens, UniProt Q13224)
# Construct: host or cells: HEK293 (tetracycline-induced expression)
# EXPERIMENT DESCRIPTION: NR2B Ca2+ influx assay (FLIPR, Fluo-4) in HEK293 cells expressing human GRIN1 and GRIN2B
# Type: cell-based
# RUN CONDITIONS: HEK293, 10 μM final compound concentration, glutamic acid/glycine-induced Ca2+ influx, read-out: inhibitory rate (10 μM compound concentration)
Decide by inhibition at 10 µM: equal to or exceeding 80% means 1 (yes), less means 0 (no).

> print(dat)
                                   molecule  answer.label
1  CCOc1ncc(C(=O)NCc2c(OC)ccc3nc(C)n(C)c23)cc1F [Example 234]        0 (no)
2  COCc1ccc2ncn(C)c2c1CNC(=O)c1ccc(C(F)(F)F)cc1 [Example 280]        0 (no)
3  COc1ccc(C(=O)NCc2c(OC)ccc3ncn(C)c23)s1 [Example 48]       1 (yes)
4  CCOc1ccc2ncn(C)c2c1CNC(=O)c1ccc(C(F)F)s1 [Example 126]       1 (yes)
5  CCc1ccc2[nH]nnc2c1CNC(=O)c1cnc(OC)c(F)c1 [Example 208]       1 (yes)
6  COc1ncc(C(=O)NCc2c(C3CC3)ccc3[nH]ncc23)cc1Cl [Example 103]       1 (yes)
7  CCOc1ccc2ncn(C)c2c1CNC(=O)c1cc(F)c(OC)c(F)c1 [Example 127]       1 (yes)
8  COc1c(F)cc(C(=O)NCc2c(C3CC3)ccc3[nH]nnc23)cc1F [Example 204]       1 (yes)
9  CCc1ccc2ncn(C)c2c1CNC(=O)c1csc(C(F)F)c1 [Example 132]       1 (yes)

----------
# TARGET: NMDA receptor composed of four subunits including 2 sets of heterodimers of NR1 and NR2B (Homo sapiens, UniProt Q13224)
# Construct: host or cells: HEK293 (tetracycline-induced expression)
# EXPERIMENT DESCRIPTION: NR2B Ca2+ influx assay (FLIPR, Fluo-4) in HEK293 cells expressing human GRIN1 and GRIN2B
# Type: cell-based
# RUN CONDITIONS: HEK293, 10 μM final compound concentration, glutamic acid/glycine-induced Ca2+ influx, read-out: inhibitory rate (10 μM compound concentration)
Each entry falls in a class defined on inhibition at 10 µM; the bands are low band (below 80%), middle band (80% to below 90%), high band (90% or more)

> print(dat)
                                 smiles.data  answer.label
 1  CCn1cnc2ccc(OC)c(CNC(=O)c3cc(F)c(OC)c(F)c3)c21   middle band
 2  COc1ccc2nc(C)n(C)c2c1CNC(=O)c1ccc(Cl)cc1      low band
 3  Cc1ccc2ncn(C)c2c1CNC(=O)c1cc(F)c(C(F)(F)F)c(F)c1      low band
 4  COc1ccc2nc(C)n(C)c2c1CNC(=O)c1csc(C(F)F)c1      low band
 5  COc1ccc2nc(C)n(C)c2c1CNC(=O)c1ccc(C(F)(F)F)s1      low band
 6  CCOc1ncc(C(=O)NCc2c(C3CC3)ccc3[nH]ncc23)cc1F     high band
 7  O=C(NCc1cccc2[nH]ncc12)c1cc(F)c(OC(F)F)c(F)c1     high band
 8  O=C(NCc1c(C2CC2)ccc2[nH]ncc12)c1ccc(C(F)F)c(F)c1     high band
 9  COc1ccc2[nH]nnc2c1CNC(=O)c1ccc(OC(F)(F)F)cc1     high band
10       Cc1ccc2ncn(C)c2c1CNC(=O)c1csc(Cl)c1      low band
11  COc1c(F)cc(C(=O)NCc2cccc3[nH]nc(C)c23)cc1F      low band
12  O=C(NCc1c(C2CC2)ccc2[nH]ncc12)c1ccc(C(F)(F)F)cc1     high band
13  O=C(NCc1c(I)ccc2[nH]ncc12)c1ccc(OC(F)(F)F)cc1   middle band
14  O=C(NCc1c(C2CC2)ccc2[nH]ncc12)c1ccc(OC(F)F)c(Cl)c1     high band
15  Cc1ccc2ncn(C)c2c1CNC(=O)c1ccc(C(F)F)c(F)c1   middle band
16  O=C(NCc1cccc2[nH]ncc12)c1ccc(C(F)F)c(F)c1      low band
17  COc1ccc(C(=O)NCc2c(OC)ccc3nc(C)n(C)c23)cc1F      low band
18    Cc1ccc2ncn(C)c2c1CNC(=O)c1csc(C(F)F)c1   middle band
